Examples of compounds with documented TGI follow.
- Tested on: NCI-H460 lung
- PROCEDURE TEXT: NCI tumour cell line growth inhibition, 48 h

c1ccc2c(c1)ccc1nc(-c3ccc4c(c3)OCO4)c3c(c12)CCC3 | > 100 µM

Query string: Please report the recorded TGI for `CC(=O)OC[C@H]1O[C@@H](n2ccc(=O)[nH]c2=O)[C@H](OC(C)=O)[C@@H]1OC(C)=O` .
Result string: > 100 µM

----------
- Test system: NCI-H23 lung
- PROCEDURE TEXT: NCI tumour cell line growth inhibition, 48 h; in the data active means GI50 below about 0.43 µM; inactive means the rest
Output constraint: value belongs to active, inactive

Example results:
Cc1ccc(C(CN(C)C)C(=O)c2ccccc2)cc1 (stereo not given) | inactive
CCN(CC)c1ccc(/C=C\c2cc(C)c3cc(C)ccc3n2)cc1 | inactive
[Cl][Bi]([O]c1ccccn1)[O]c1ccccn1 | inactive
C[C@]12CCC3[C@@H](C[C@@H]4SC(Nc5ccccc5)=N[C@@]45CC(=O)CC[C@]35C)[C@@H]1CCC2=O (stereo not given in full) | inactive
NC(=O)c1cnc(N[C@@H]2CCCC[C@@H]2N)nc1Nc1cccc(-n2nccn2)c1 | inactive

Query string: Assay outcome for `COc1ccccc1-[n+]1cc(-c2ccc(-c3ccccc3)cc2)n2c1CCCCC2` : what was it?
Result string: active

Query string: Assay outcome for `CC1=C(/C=C/C(C)=C\C=C\C(C)=C\C(=O)Nc2ccc3c(c2)OCO3)C(C)(C)CCC1` : what was it?
Result string: inactive

Query string: Assay outcome for CCOP(=O)(OCC)C(NC(c1ccccc1)c1ccccc1)c1ccccc1 (stereo not given) : what was it?
Result string: inactive

Query string: Assay outcome for `COc1ccc(/C=C/C(=O)c2cc3c(N)c(C(=O)Nc4ccccc4Cl)sc3nc2C)cc1` : what was it?
Result string: inactive

Query string: Assay outcome for CC(C)(C)N1CCC1C(N)=O (stereo not given) : what was it?
Result string: inactive

----------
- Tested on: SN12C renal
- PROCEDURE TEXT: NCI tumour cell line growth inhibition, 48 h
Examples of compounds with documented TGI follow.

COc1cccc(OC/C(N=Cc2ccncc2)=N/NC(=O)c2ccncc2)c1 | > 100 µM
CCOC(=O)CC(=O)Sc1ccccc1 | 24.6 µM
Cc1ccc(C(=O)NN=C(/N=N/c2cccc(C)c2)c2ccc(N(C)C)cc2)cc1 | > 100 µM
N#CC(NNC(=O)c1ccccc1O)c1ccc(O)cc1 (stereo not drawn) | > 100 µM
O=C1C=C[C@@]23CC1C(O)C[C@H]2C=Cc1ccccc13 (stereo partly drawn) | > 100 µM
CCOC(=O)c1nc2ccccc2nc1Nc1ccc(F)cc1 | > 100 µM
CCOC(=O)NC(OCc1ccccc1)(C(=O)OC)C(F)(F)F (stereo not drawn) | > 100 µM
C/C(O)=C(\N=O)C(=O)NCCc1ccccc1 | > 100 µM

Query string: Please report the recorded TGI for OCC1c2ccccc2-n2nc(-c3ccccc3)c(O)c21 (stereo not drawn) .
Result string: 36.8 µM

Query string: Please report the recorded TGI for Cc1cn(C2CC(SCCO)C(CO)O2)c(=O)[nH]c1=O (stereo not drawn) .
Result string: > 100 µM

Query string: Please report the recorded TGI for `CCCCNC(=S)Nc1nc(C(=O)NNC(=S)NCc2ccccc2)cs1` .
Result string: > 100 µM

Query string: Please report the recorded TGI for `c1cc2c3c(c1)[C@@H]1O[C@@H]1c1cccc(c1-3)[C@@H]1O[C@H]21` .
Result string: 54.2 µM

Query string: Please report the recorded TGI for `CCN(Cc1cccc(OC)c1)c1ccc(CO)c(Cl)c1` .
Result string: 32.1 µM

Query string: Please report the recorded TGI for `COc1ccc(C=C2C(=O)OC(C)(C)OC2=O)cc1OC` .
Result string: > 100 µM

Query string: Please report the recorded TGI for COC(=O)c1c(C)cccc1C1CN=NC12Cc1cccc(C)c1C2=O (stereo not drawn) .
Result string: > 100 µM

----------
Examples of molecules with documented TGI follow.
- Tested on: IGROV1 ovarian
- PROCEDURE TEXT: NCI tumour cell line growth inhibition, 48 h

Reference set, count: 5
O=c1oc2ccccc2c(O)c1C(c1ccc(O)cc1)c1c(O)c2ccccc2oc1=O | > 100 µM
O=C(O)Cn1ncn(NC(=O)Cc2ccccc2)c1=S | > 10 µM
CC(=O)Nc1nc(C)c(S(=O)(=O)NC(=O)N2c3ccccc3CCc3ccccc32)s1 | > 100 µM
Clc1ccc(Cl)c2[s+]snc12 | > 100 µM
Nc1ccc2c(SCCSc3c4ccccc4nc4cc(N)ccc34)c3ccccc3nc2c1 | > 100 µM

Now consider a different molecule.
Query string: Please report the recorded TGI for `O=c1cnc2cc3ccccc3cc2[nH]1` .
Result string: > 100 µM

----------
- Tested on: SW-620 colon
- PROCEDURE TEXT: NCI tumour cell line growth inhibition, 48 h
*1 amine or outer side, *2 acyl side, *3 side chain or, on linkers, in order; H or OH if unused. Where a SMILES comes first, the peptide text is derived from it. Bridges are numbered along the chain shown (N, C = ends). Roman numbers before positions name the chains, in order. [ ]: non-standard residue; d: D form. Actinocin(9to1) = Cc1c2oc3c(C)ccc(C(=O)[*:1])c3nc-2c(C(=O)[*:2])c(N)c1=O; NMeV = CN[CH](C(=O)O)C(C)C; Sar = CNCC(=O)O
Examples of compounds with documented TGI follow.

Reference set, count: 3
COC(=O)C(CCS(=O)(=O)CC(=O)C(=O)Nc1cccc(C(C)=O)c1)C(=O)OC | > 100 µM
CC(=O)NCC1OC2COC(c3ccccc3)OC2C2N=C(c3ccccc3)OC12 (stereo unspecified) | > 100 µM
Cc1cccc(=O)c([O-])c1.Cc1cccc(=O)c([O-])c1.Cc1cccc(=O)c([O-])c1.Cc1cccc(=O)c([O-])c1.[Th+4] | > 100 µM

Query string: Please report the recorded TGI for CCCOC1OC(CS(=O)(=O)O)C(OC(C)=O)C(OC(C)=O)C1OC(C)=O (stereo unspecified) .
Result string: > 100 µM

Query string: Please report the recorded TGI for `CC(C)C(=O)/C=C/c1ccccc1` .
Result string: > 100 µM

Query string: Please report the recorded TGI for CC(O)/C=C/C(CCC(C)CO)C(C)C (stereo unspecified) .
Result string: > 100 µM

Query string: Please report the recorded TGI for `C/C(=N\NC(=O)c1ccncc1)c1cccc(C(F)(F)F)c1` .
Result string: > 10 µM

Query string: Please report the recorded TGI for `CC(C)(C)C(=O)O[C@H]1C=C[C@@H](O)[C@@H]2[C@H]1[C@@H]1C=C[C@H]2C1` .
Result string: > 100 µM

Query string: Please report the recorded TGI for Cc1c2oc3c(C)ccc(C(=O)NC4C(=O)NC(Cc5ccc(O)cc5)C(=O)N5CCCC5C(=O)N(C)CC(=O)N(C)C(C(C)C)C(=O)OC4C)c3nc-2c(C(=O)NC2C(=O)NC(Cc3ccc(O)cc3)C(=O)N3CCCC3C(=O)N(C)CC(=O)N(C)C(C(C)C)C(=O)OC2C)c(N)c1=O (stereo unspecified) (I: TYP[Sar][NMeV] / II: TYP[Sar][NMeV]; ester I:1-I:C, II:1-II:C; linker I:N-II:N via Actinocin(9to1); configuration not given here) .
Result string: > 100 µM

Query string: Please report the recorded TGI for `CCOc1ccc(N=Cc2cccc3cccnc23)cc1` .
Result string: > 100 µM

Query string: Please report the recorded TGI for O=C1C(Cl)=C(Cl)C(=O)N1C1C2CC3CC(C2)CC1C3 (stereo unspecified) .
Result string: > 100 µM

Query string: Please report the recorded TGI for `S=c1oc(CCCCCCCCc2nn(CNc3ccc(Cl)cc3)c(=S)o2)nn1CNc1ccc(Cl)cc1` .
Result string: > 100 µM

Query string: Please report the recorded TGI for `Clc1ccc(Cl)c2[s+]snc12` .
Result string: > 51.9 µM

Query string: Please report the recorded TGI for `CN(c1ccc(Cl)cc1)S(=O)(=O)c1ccccc1` .
Result string: > 100 µM

Query string: Please report the recorded TGI for `O=c1cc(C(F)(F)F)c2cc3c(cc2o1)NCCC3` .
Result string: > 100 µM

----------
- Tested on: SNB-75 CNS
- PROCEDURE TEXT: NCI tumour cell line growth inhibition, 48 h
Examples of molecules with documented TGI follow.

O=C1C(Cl)=C(Cl)C(=O)N1C1C2CC3CC(C2)CC1C3 (stereo not given) | > 100 µM
COc1ccc(C=C2C(=O)OC(C)(C)OC2=O)cc1OC | > 100 µM

Query string: Please report the recorded TGI for C=C(C)C(=O)O[C@H]1CC2(CO)O[C@@H]2CC/C(COC(C)=O)=C/C2OC(=O)C(=C)[C@@H]21 (stereo not given in full) .
Result string: > 100 µM

Query string: Please report the recorded TGI for COc1ccc(C2C3=CONC3CC3CCCCC32)cc1 (stereo not given) .
Result string: > 100 µM

Query string: Please report the recorded TGI for CC(CN(CP(=O)([O-])[O-])CP(=O)([O-])[O-])N(CP(=O)([O-])[O-])CP(=O)([O-])[O-].N.N.[Pt+2] (stereo not given) .
Result string: > 100 µM

Query string: Please report the recorded TGI for CC(=O)NC1C(OCc2ccccc2)OC(CO)C(O)C1OCC(=O)N[C@@H](C)C(=O)N[C@H](CCC(=O)NCCCCNc1c2ccccc2nc2cccc([N+](=O)[O-])c12)C(N)=O (stereo not given in full) .
Result string: 4.69 µM

Query string: Please report the recorded TGI for `CCCCn1c2cc(OCc3cn(-c4ccc(Cl)cc4)nn3)ccc2c2ccnc(C)c21` .
Result string: 13.1 µM

Query string: Please report the recorded TGI for `COc1ccc2c3c([nH]c2c1)-c1nc2ccccc2c(=O)n1CC3` .
Result string: > 25 µM

Query string: Please report the recorded TGI for `CC(=O)OC[C@H]1O[C@@H](n2ccc(=O)[nH]c2=O)[C@H](OC(C)=O)[C@@H]1OC(C)=O` .
Result string: > 100 µM

Query string: Please report the recorded TGI for `O=C1Sc2cc3ccccc3cc2C(=O)Sc2cc3ccccc3cc21` .
Result string: > 100 µM
